- test-system: GAK (Homo sapiens)
- Construct: purchased DiscoverX
- Sequence (O14976 1-1311): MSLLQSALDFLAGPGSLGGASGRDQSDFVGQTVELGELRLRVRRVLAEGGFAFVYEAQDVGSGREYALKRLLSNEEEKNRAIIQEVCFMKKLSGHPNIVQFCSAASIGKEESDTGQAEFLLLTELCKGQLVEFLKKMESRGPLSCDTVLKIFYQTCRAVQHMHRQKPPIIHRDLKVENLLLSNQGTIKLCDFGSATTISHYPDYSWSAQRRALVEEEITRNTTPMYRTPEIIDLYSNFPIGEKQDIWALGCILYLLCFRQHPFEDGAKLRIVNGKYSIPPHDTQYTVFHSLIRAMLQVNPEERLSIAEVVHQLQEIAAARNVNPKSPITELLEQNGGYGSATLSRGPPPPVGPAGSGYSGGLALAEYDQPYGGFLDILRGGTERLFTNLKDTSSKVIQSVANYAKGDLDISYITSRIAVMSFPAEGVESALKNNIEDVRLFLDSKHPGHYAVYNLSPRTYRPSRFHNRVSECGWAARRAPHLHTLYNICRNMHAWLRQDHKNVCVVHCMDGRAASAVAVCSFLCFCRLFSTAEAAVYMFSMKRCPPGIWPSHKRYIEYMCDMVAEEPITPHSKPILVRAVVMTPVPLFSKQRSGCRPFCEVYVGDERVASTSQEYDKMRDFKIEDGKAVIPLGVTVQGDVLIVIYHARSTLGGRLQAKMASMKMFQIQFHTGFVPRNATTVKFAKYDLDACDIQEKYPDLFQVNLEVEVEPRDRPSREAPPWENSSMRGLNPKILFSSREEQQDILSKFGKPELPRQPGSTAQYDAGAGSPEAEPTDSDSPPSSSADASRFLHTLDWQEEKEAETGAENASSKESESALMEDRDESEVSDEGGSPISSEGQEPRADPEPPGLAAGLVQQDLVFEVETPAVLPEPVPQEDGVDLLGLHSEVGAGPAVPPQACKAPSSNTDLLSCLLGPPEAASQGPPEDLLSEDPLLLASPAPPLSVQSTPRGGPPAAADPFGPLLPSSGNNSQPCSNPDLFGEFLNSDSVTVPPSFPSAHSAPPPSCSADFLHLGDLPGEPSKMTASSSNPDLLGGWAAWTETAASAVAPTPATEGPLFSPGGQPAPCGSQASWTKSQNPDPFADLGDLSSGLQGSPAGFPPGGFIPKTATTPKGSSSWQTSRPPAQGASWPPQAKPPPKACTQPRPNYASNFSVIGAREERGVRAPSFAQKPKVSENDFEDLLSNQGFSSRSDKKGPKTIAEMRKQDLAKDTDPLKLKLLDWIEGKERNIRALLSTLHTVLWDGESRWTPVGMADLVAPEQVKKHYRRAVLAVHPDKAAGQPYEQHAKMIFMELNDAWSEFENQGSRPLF
- protocol-text: scanMAX Kinase panel (DiscoverX), % control
- Format: binding
- test-parameters: <35% = active
measurement-name: remaining binding at 1 µM (%)
Write it as a number; the unit % goes unstated.

Lookup: Entry COCCNc1cc(Nc2ccc(P3(=O)CCN(C4CC4)CC3)cc2OC)nc2[nH]cc(C(F)(F)F)c12 needs its remaining binding at 1 µM filled in; supply it.
Found: 38

Lookup: Entry O=C(c1ccc(Nc2cc(C3CC3)c3c(C(F)(F)F)c[nH]c3n2)c2c1CCO2)N1CC[C@@H](N2CCOCC2)C1 needs its remaining binding at 1 µM filled in; supply it.
Found: 27

Lookup: Entry CNc1cc(Nc2ccc(C(=O)N3CC[C@H](N4CCOCC4)C3)c3c2OCC3)nc2[nH]cc(C(F)(F)F)c12 needs its remaining binding at 1 µM filled in; supply it.
Found: 9.9

Lookup: Entry CCNc1cc(Nc2ccc(S(=O)(=O)N3CCC(N4CCOCC4)CC3)c3c2OCCO3)nc2[nH]cc(C(F)(F)F)c12 needs its remaining binding at 1 µM filled in; supply it.
Found: 14

Lookup: Entry CCNc1cc(Nc2ccc(C(=O)N3CCC(N4C[C@@H]5C[C@H]4CO5)CC3)c3c2OCC3)nc2[nH]cc(C(F)(F)F)c12 needs its remaining binding at 1 µM filled in; supply it.
Found: 4.8

Lookup: Entry O=C(c1ccc(Nc2cc(C3CC3)c3c(C(F)(F)F)c[nH]c3n2)c2c1CCO2)N1CC[C@H](N2CCOCC2)C1 needs its remaining binding at 1 µM filled in; supply it.
Found: 15

====

Field: inhibition at 0.5 µM. Provide a value for each of the compounds that follow.
- Tested on: TNF-α
- protocol-text: TNF-α secretion inhibition in LPS-treated THP-1 cells (ELISA)
- Format: cell-based
- test-parameters: Homo sapiens, compound 0.5 μM, LPS 500 ng/ml, 24 hours, read-out: THP-1/TNF-a (% inhib)
Write it as a number; the unit % goes unstated.

Lookup: Entry CCNc1cc(Nc2ccc(C(=O)N3CCC(N4CCOCC4)CC3)c3c2OCO3)nc2[nH]cc(C(F)(F)F)c12 needs its inhibition at 0.5 µM filled in; supply it.
Found: 100

Lookup: Entry CCNc1cc(Nc2ccc(C(=O)N3CCC(N4CCN(C5CC5)CC4)CC3)c3c2OCC3)nc2[nH]cc(C(F)(F)F)c12 needs its inhibition at 0.5 µM filled in; supply it.
Found: 11.2

Lookup: Entry CCNc1cc(Nc2ccc(C(=O)N3CCC(N4CCOCC4)CC3)c3c2OCC3)nc2[nH]cc(C(F)(F)F)c12 needs its inhibition at 0.5 µM filled in; supply it.
Found: 12.4

====

- test-system: LRRK2 (Homo sapiens)
- Sequence (Q5S007 970-2527 limits assumed): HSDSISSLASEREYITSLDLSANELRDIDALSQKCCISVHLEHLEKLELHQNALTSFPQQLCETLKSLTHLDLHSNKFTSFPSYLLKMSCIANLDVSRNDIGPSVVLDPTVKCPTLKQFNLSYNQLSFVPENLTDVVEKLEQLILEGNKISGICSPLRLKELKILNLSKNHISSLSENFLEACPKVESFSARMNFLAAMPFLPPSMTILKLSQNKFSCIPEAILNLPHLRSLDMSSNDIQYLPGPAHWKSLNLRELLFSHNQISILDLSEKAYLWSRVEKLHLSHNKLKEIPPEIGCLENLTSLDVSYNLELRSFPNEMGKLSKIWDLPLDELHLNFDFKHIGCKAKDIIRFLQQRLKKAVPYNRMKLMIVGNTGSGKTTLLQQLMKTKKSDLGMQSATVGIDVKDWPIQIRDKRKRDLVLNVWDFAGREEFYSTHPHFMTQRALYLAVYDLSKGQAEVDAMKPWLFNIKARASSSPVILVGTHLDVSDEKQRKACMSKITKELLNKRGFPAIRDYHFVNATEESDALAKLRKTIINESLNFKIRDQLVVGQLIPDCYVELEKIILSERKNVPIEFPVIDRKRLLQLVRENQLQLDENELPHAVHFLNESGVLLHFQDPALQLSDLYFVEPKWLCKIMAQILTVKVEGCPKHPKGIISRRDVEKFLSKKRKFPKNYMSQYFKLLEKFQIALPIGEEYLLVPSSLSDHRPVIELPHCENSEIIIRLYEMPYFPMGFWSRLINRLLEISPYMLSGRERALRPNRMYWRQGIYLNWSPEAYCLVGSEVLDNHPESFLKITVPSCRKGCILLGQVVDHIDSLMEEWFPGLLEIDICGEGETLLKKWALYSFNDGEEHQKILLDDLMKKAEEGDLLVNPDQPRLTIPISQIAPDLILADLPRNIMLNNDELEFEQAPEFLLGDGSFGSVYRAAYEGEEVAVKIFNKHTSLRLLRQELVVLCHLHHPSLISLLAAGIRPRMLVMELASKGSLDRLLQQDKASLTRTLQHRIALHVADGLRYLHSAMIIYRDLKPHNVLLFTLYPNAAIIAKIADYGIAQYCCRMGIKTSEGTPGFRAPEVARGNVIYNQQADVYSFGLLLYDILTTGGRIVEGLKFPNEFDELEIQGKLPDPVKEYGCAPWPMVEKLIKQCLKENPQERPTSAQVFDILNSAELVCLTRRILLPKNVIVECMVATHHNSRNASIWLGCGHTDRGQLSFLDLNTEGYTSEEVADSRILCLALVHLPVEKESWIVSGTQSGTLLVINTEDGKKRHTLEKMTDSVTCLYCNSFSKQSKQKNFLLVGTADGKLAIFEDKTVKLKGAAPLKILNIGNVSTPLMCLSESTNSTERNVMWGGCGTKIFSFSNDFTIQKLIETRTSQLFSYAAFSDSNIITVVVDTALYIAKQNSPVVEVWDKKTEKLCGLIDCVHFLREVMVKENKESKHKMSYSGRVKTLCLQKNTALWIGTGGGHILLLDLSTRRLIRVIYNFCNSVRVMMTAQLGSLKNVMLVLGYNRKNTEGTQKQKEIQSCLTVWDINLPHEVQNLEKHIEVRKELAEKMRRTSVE
pIC50: −log10 of the molar value.
measurement-name: pIC50

Lookup: Enter measured pIC50, system LRRK2 (Homo sapiens), for the molecule shown: COc1cc(S(=O)(=O)N2CCC(N3CCOCC3)CC2)ccc1Nc1cc(C2CC2)c2c(C#N)c[nH]c2n1 [Example 228]
Found: > 7.00

Lookup: Enter measured pIC50, system LRRK2 (Homo sapiens), for the molecule shown: COc1cc(S(C)(=O)=O)ccc1Nc1cc(NC2CCC2)c2c(Cl)c[nH]c2n1 [Example 85]
Found: 6.00 to 6.52

Lookup: Enter measured pIC50, system LRRK2 (Homo sapiens), for the molecule shown: COCCNc1cc(Nc2ccc(C(=O)N3CCC(N4CCOCC4)CC3)c3c2OCCO3)nc2[nH]cc(C#N)c12 [Example 118]
Found: > 7.00

Lookup: Enter measured pIC50, system LRRK2 (Homo sapiens), for the molecule shown: COc1cc(S(=O)(=O)N2CCOCC2)ccc1Nc1cc(NC2CCCCC2)c2c(C(F)(F)F)c[nH]c2n1 [Example 181]
Found: 6.00 to 6.52

Lookup: Enter measured pIC50, system LRRK2 (Homo sapiens), for the molecule shown: COCCNc1cc(Nc2ccc(P3(=O)CCN(C4CC4)CC3)cc2OC)nc2[nH]cc(C#N)c12 [Example 148]
Found: > 7.00

====

- System: IL-6
- protocol-text: IL-6 secretion inhibition in LPS-treated THP-1 cells (ELISA)
- Format: cell-based
- test-parameters: Homo sapiens, compound 0.5 μM, LPS 500 ng/ml, 24 hours, read-out: THP1/IL6 (% inhib)
- Protocol: In order to evaluate the cytokine secretion inhibitory efficacy of mononuclear cells, THP-1 cells (ATCC, #TIB-202) as a human-derived monocyte cell line were cultured in RPMI-1640 (Hyclone, SH30027.01) media in which 10% fetal bovine serum (Hyclone, SH30084.03), 1% penicillin streptomycin (Welgene, LS202-02) and 50 μM 2-Mercaptoethanol (Gibco, #21985023) were contained. […]
Field: inhibition at 0.5 µM. Provide a value for each of the compounds that follow.
Write it as a number; the unit % goes unstated.

Lookup: Entry CCNc1cc(Nc2ccc(C(=O)N3CCC(N4C[C@H]5C[C@@H]4CO5)CC3)c3c2OCC3)nc2[nH]cc(C(F)(F)F)c12 needs its inhibition at 0.5 µM filled in; supply it.
Found: 40.1

Lookup: Entry CCNc1cc(Nc2ccc(C(=O)N3CCC(N4CCN(C5CC5)CC4)CC3)c3c2OCC3)nc2[nH]cc(C(F)(F)F)c12 needs its inhibition at 0.5 µM filled in; supply it.
Found: 45.5

Lookup: Entry CCNc1cc(Nc2ccc(C(=O)N3CCN(C4COC4)CC3)c3c2OCC3)nc2[nH]cc(C(F)(F)F)c12 needs its inhibition at 0.5 µM filled in; supply it.
Found: 48.4

Lookup: Entry CCNc1cc(Nc2ccc(C(=O)N3CC[C@@H](N4CCOCC4)C3)c3c2OCC3)nc2[nH]cc(C(F)(F)F)c12 needs its inhibition at 0.5 µM filled in; supply it.
Found: 3.9

Lookup: Entry CCNc1cc(Nc2ccc(P3(=O)CCN(C(C)=O)CC3)cc2OC)nc2[nH]cc(C(F)(F)F)c12 needs its inhibition at 0.5 µM filled in; supply it.
Found: 48.3

Lookup: Entry CCNc1cc(Nc2ccc(C(=O)N3CCC(N4CCOCC4)CC3)c3c2OCC3)nc2[nH]cc(C(F)(F)F)c12 needs its inhibition at 0.5 µM filled in; supply it.
Found: 12.2

Lookup: Entry CNc1cc(Nc2ccc(C(=O)N3CCC(N4CCOCC4)CC3)c3c2OCC3)nc2[nH]cc(C(F)(F)F)c12 needs its inhibition at 0.5 µM filled in; supply it.
Found: 50.9

Lookup: Entry COCCNc1cc(Nc2ccc(P3(=O)CCN(C4CC4)CC3)cc2OC)nc2[nH]cc(C(F)(F)F)c12 needs its inhibition at 0.5 µM filled in; supply it.
Found: 41.7

Lookup: Entry CCNc1cc(Nc2ccc(C(=O)N3CCN(C4COC4)CC3)c3c2OCCO3)nc2[nH]cc(C(F)(F)F)c12 needs its inhibition at 0.5 µM filled in; supply it.
Found: 9.1
